Where these numbers come from: patent US6479435B1

Test system: sicklepod (Cassia obtusifolia, CASOB)
Experiment: Pre-emerge greenhouse herbicide test, phytotoxicity rating
Assay type: in vivo
Conditions: Rate 125 g al/ha, 14 days after application, rating scale 0-100
READOUT: CASOB phytotoxicity rating

{"COMPOUND": "O=c1n(-c2cc(Oc3ccc([N+](=O)[O-])cn3)c(Cl)cc2F)c(=S)n2n1CCCC2", "SYSTEM NAME": "sicklepod (Cassia obtusifolia, CASOB)", "CASOB phytotoxicity rating": 0}

Please look at the items below and tell me CASOB phytotoxicity rating for each one, in order.
1. CCOC(=O)C(C)Oc1ccc(Oc2cc(-n3c(=O)n4n(c3=S)CCCC4)c(F)cc2Cl)c([N+](=O)[O-])c1 (stereo not shown)
2. O=c1n(-c2cc(Oc3nc(Cl)ccc3C(F)(F)F)c(Cl)cc2F)c(=S)n2n1CCCC2
3. N#Cc1cccnc1Oc1cc(-n2c(=O)n3n(c2=S)CCCC3)c(F)cc1Cl

Found:
[95, 0, 90]
